Target: MerTK (Homo sapiens)
Construct: Seed HUVECs (10K cells/well) in EBM-2 complete media
Sequence (Q12866 21-999): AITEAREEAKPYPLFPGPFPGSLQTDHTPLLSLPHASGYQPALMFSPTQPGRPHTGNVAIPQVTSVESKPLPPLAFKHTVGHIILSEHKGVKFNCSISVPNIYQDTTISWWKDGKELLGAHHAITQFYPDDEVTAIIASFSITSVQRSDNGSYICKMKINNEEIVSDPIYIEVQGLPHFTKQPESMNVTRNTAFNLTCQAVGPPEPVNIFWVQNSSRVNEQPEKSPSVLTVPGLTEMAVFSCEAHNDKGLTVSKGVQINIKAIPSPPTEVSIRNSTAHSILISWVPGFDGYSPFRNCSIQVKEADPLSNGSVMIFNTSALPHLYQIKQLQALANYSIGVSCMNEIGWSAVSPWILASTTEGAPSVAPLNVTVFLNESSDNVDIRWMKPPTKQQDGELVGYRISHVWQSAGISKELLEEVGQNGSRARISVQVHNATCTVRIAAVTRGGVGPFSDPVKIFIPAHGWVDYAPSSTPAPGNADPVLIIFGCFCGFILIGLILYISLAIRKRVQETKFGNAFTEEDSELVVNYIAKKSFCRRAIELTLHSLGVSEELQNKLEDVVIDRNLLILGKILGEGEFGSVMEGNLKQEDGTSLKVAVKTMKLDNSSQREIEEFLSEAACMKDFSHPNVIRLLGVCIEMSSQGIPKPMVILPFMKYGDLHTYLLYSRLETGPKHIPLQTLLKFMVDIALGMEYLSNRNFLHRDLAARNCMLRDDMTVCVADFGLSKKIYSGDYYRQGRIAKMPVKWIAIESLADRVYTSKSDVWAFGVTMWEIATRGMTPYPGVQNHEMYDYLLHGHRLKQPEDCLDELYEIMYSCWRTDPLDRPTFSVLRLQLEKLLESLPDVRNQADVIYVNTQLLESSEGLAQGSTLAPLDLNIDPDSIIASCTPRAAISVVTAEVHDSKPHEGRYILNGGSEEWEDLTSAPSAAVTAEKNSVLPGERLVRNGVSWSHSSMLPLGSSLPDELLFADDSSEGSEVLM
Assay: PAKT HTRF-HUVEC assay (pAkt Ser473 HTRF after anti-human MerTK-XL stimulation)
Details: HUVEC cells, 1 hour compound, stimulated with anti-human MerTK-XL 1 ug/mL for 10 minutes, read-out: inhibition of MerTK
Lab note: cut-off is 0.05 µM. Strictly less in EC50 is Met. Exactly 0.05 µM or more is Not met.

Molecule	Target entity	Category
CCCCNc1ncc2c3ccc(N4CCN5CCC[C@@H]5C4)cc3c(=O)n([C@H]3CC[C@H](O)CC3)c2n1	MerTK (Homo sapiens)	Met
CCC1(CNc2ncc3c4ccc(CN5CCN(C)CC5)cc4c(=O)n([C@H]4CC[C@H](O)CC4)c3n2)CCC1	MerTK (Homo sapiens)	Not met
CC(C)(C)N1CCN(Cc2ccc3c(c2)c(=O)n([C@H]2CC[C@H](O)CC2)c2nc(NC4CC(F)(F)C4)ncc32)CC1	MerTK (Homo sapiens)	Met
CN1CCC(Nc2ccc3c(c2)c(=O)n([C@H]2CC[C@H](O)CC2)c2nc(NCC4CC4)ncc32)CC1	MerTK (Homo sapiens)	Not met
CN1CC2(C1)CN(c1ccc3c(c1)c(=O)n([C@H]1CC[C@H](O)CC1)c1nc(NC4CC(F)(F)C4)ncc31)C2	MerTK (Homo sapiens)	Not met
CCCCNc1ncc2c3ccc(CN4CCN(C)CC4)cc3c(=O)n(C3CCC(C)(O)CC3)c2n1 (stereo not drawn)	MerTK (Homo sapiens)	Met
O=c1c2cc(CN3CCOCC3)ccc2c2cnc(NCC3CC3)nc2n1[C@H]1CC[C@H](O)CC1 [Compound 45]	MerTK (Homo sapiens)	Not met
CN1CCN(Cc2ccc3c(c2)c(=O)n([C@H]2CC[C@H](O)CC2)c2nc(NCCCC(F)(F)F)ncc32)CC1	MerTK (Homo sapiens)	Not met
O=c1c2cc(N3CCN(CC(F)F)CC3)ccc2c2cnc(NCC3CC3)nc2n1[C@H]1CC[C@H](O)CC1 [Compound 105]	MerTK (Homo sapiens)	Not met
O=c1c2cc(CN3CCNCC3)ccc2c2cnc(NCC3CC3)nc2n1[C@H]1CC[C@H](O)CC1 [Compound 54]	MerTK (Homo sapiens)	Not met
O=c1c2cc(CN3CCCCC3)ccc2c2cnc(NCC3CC3)nc2n1[C@H]1CC[C@H](O)CC1	MerTK (Homo sapiens)	Met
CC(C)N1CCN(Cc2ccc3c(c2)c(=O)n(C2CCC(C)(O)CC2)c2nc(NCCC4CC4)ncc32)CC1 (stereo not drawn)	MerTK (Homo sapiens)	Met
CCCCNc1ncc2c3ccc(CN4CCN(C)CC4)cc3c(=O)n(CC3CCC(N)CC3)c2n1 (stereo not drawn)	MerTK (Homo sapiens)	Not met
